Target: T1, human CD40 on cells (human, UniProt P25942 21-277)
T1 construct: also called CD40 receptor on human B cells
T1 sequence (P25942 21-277 limits assumed): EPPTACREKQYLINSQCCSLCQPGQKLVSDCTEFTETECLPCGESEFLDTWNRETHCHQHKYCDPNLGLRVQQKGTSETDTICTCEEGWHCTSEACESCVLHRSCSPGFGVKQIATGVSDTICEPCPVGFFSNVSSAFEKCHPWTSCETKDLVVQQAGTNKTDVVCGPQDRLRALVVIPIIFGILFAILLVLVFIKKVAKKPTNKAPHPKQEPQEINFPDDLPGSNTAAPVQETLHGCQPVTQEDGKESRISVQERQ
Assay: flow cytometry, labelled CD40L on CD40-293T cells, antibody at 10 ug/ml
Would you mind telling me the reported Ligand Binding Inhibition (%) of each entry?
Numbers only, in %.

[
  {
    "binder": "29H10 (antibody, V domains shown, also called 4877-1) VH: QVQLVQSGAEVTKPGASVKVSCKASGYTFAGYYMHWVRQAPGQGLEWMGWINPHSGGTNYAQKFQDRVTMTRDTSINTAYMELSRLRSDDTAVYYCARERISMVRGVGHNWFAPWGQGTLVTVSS VL: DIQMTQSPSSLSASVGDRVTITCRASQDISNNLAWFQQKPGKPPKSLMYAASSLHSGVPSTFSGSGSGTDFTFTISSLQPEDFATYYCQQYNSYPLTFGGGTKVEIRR",
    "output_unit": "%",
    "Ligand Binding Inhibition (%)": 1
  },
  {
    "binder": "37A6 (antibody, IgG4, V domains shown, also called 4865-1) VH: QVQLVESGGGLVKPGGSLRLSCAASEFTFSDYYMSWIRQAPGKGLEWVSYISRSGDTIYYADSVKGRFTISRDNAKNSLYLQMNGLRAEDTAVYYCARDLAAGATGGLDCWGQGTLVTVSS VL: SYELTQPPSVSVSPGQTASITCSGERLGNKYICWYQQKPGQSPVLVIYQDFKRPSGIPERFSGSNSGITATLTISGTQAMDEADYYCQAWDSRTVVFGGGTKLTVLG",
    "output_unit": "%",
    "Ligand Binding Inhibition (%)": 6
  },
  {
    "binder": "33H6 (antibody, IgG4, V domains shown, also called 4883-1) VH: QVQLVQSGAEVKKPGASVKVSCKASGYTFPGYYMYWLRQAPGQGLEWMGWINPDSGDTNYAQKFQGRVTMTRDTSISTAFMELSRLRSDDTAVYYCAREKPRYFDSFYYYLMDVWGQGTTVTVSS VL: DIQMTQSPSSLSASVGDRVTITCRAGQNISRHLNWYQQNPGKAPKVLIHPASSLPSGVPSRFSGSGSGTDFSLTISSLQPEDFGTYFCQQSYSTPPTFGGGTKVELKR",
    "output_unit": "%",
    "Ligand Binding Inhibition (%)": 11
  },
  {
    "binder": "35F11 (antibody, IgG4, V domains shown, also called 4868-1) VH: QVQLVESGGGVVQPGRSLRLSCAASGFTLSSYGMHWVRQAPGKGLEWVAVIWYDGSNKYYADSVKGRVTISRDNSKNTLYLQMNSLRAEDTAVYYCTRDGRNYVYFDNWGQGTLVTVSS VL: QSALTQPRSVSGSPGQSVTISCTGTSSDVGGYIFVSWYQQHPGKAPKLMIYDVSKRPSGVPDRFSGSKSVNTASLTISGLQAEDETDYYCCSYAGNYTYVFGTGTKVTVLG",
    "output_unit": "%",
    "Ligand Binding Inhibition (%)": 51
  },
  {
    "binder": "39C2 (antibody, IgG4, V domains shown, also called 4887-1) VH: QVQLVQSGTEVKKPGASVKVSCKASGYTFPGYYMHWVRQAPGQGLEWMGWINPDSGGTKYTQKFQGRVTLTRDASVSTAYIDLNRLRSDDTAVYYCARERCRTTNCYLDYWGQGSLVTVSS VL: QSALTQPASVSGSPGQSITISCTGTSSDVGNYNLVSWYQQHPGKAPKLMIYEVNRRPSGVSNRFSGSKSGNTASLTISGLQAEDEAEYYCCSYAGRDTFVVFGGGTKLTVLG",
    "output_unit": "%",
    "Ligand Binding Inhibition (%)": 3
  }
]

Now for another entry.
Input line: I would be grateful if you could share the reported Ligand Binding Inhibition (%) for 30A12 (antibody, IgG4, V domains shown, also called 4878-1) VH: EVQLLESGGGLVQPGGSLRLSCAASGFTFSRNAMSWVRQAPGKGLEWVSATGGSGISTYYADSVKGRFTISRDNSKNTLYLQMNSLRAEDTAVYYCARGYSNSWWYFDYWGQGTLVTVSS VL: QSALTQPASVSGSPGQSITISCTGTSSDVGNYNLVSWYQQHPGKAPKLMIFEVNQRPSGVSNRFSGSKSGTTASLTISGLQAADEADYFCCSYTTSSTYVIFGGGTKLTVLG .
Output line: -8
